// provenance: patent US20240101668A1

# TEST TARGET: T1, huCD33-G69 stably expressed on Jurkat cells (human, UniProt P20138 18-364)
# T1 construct: whole, on cells; >200,000 receptors per cell; also called CD33 Mutant; CD33 R69G
# T1 sequence (P20138 18-364 R69G): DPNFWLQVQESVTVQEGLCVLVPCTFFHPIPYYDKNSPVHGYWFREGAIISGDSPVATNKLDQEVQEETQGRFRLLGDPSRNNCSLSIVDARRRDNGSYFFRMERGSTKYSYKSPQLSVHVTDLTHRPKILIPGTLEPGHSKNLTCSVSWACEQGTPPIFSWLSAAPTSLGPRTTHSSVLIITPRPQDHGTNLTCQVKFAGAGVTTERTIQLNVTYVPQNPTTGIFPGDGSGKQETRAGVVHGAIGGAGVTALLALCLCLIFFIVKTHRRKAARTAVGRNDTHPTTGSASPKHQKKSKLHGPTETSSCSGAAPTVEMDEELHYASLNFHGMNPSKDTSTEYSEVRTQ
# ASSAY NOTES: FACS on cells;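 note: fixed Jurkat lines probed with myc-tagged scFv periplasmic extracts, anti-myc PE flow cytometry, PE MFI fold binned − <2, + 2–10, ++ 10–30, +++ >30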
RECORDED ENDPOINT: FACS geometric mean fold change over Jurkat parental

## Input Output FACS geometric mean fold change over Jurkat parental of Polypeptide No. 124 (scFv, V domains shown, scFv) VH: EVQLVESGGGLVKPGGSLRLSCAASGFTFSSYWMHWVRQAPGKGLEWVAVIWYDGSNKYYADSVKGRFTISRDDSKNTLYLQMNSLKTEDTAVYYCVRDGARSGMDVWGQGTTVTVSS VL: EIVMTQSPATLSVSPGERATLSCRASQSVSTYVAWYQQKPGQAPRLLIYGASTRATGIPARFSGSGSGTEFTLTISSLQSEDFAVYYCQQYYDTPLTFGGGTKVEIKR
## Output > 30 fold

## Input Please report FACS geometric mean fold change over Jurkat parental for the following binder: Polypeptide No. 120 (scFv, V domains shown, scFv) VH: QVQLVQSGAEVKKPGASVKVSCKASGYTFTTYYMHWVRQAPGQGLEWMGWMNPNSGNTGYAQKFQGRVTMTRDTSTSTVYMELSSLRSEDTAVYYCARGHKVDSGYDPYGMDVWGQGTTVTVSS VL: DIQMTQSPSSLSASVGDRVTITCRASQSIGTYLHWYQQKPGKAPKLLIYAISTLQNGVPSRFSGSGSGTDFTLTISSLQPEDFATYYCQQSYSPPLTFGGGTKVEIKR
## Output > 30 fold
